These measurements were taken from PubChem BioAssay (NCATS).

So I've got a bunch of compounds here, and I need their activity, negative = inhibition values.
Assay: Stat Signaling Pathway (AID 446);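 further: ME-180 cervical cancer cells given 40 pM IL-6 alongside compound; SIE-controlled beta-lactamase reporter measured as 460/530 nm FRET emission ratio; on the % scale 0 is the no-effect control and ±100 the full control effect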
Conditions: ME-180 (cervical carcinoma) SIE beta-lactamase reporter, IL-6 stimulated, 5 h; at 7.69 µM (top of the series) unless noted
Results filed as inconclusive are left out. Activity calls are given as the source filed them. The call rests on the fitted dose curve; in most records, active means well fitted curve in either direction with a large enough effect (not every such curve was filed as active); inconclusive means small, poorly fitted or top-dose-only effect, or another doubt; inactive means flat fitted curve, though single readings scatter. Residues, ends and D or L forms follow the SMILES beside them.

compound | activity, negative = inhibition
Fc1cccc(F)c1C(Nc1nncs1)Nc1nncs1 | 6.21% (inactive)
O=C(CC(=O)c1ccncc1)c1ccccc1 | 4.76% (inactive)
O=C(C[C@@H](C(=O)O)N1CCOCC1)c1ccccc1 | -2.89% (inactive)
CC(C)Oc1cc(O)c2c(c1)OCC=C2CCC(=O)O | 0.331% (inactive)
C[N+](C)(N)Cc1csc(-c2ccc(Cl)cc2)n1 | 0.559% (inactive)

Here are 8 compounds. What values of activity, negative = inhibition were reported for them?
1. Nc1nc(SCc2ccccc2)c2ncn(Cc3ccccc3)c2n1
2. C[C@@H](NC(=O)C1(N)CCCC1)C(=O)O (HELM PEPTIDE1{[NC1(C(=O)[*:2])CCCC1].[dA]}$$$$V2.0)
3. C=C(C)CNCCN
4. N#Cc1ccc(CN2CC3(CCN(C(=O)c4cc(C(F)(F)F)cc(C(F)(F)F)c4)CC3)C2)cc1
5. CC(C)CCNc1ncnc2[nH]ncc12
6. COc1cc2c(cc1O)CC[C@@H]1[C@@H]2CC[C@@]2(C)[C@H](O)CC[C@H]12
7. NC([N-]/N=C/c1ccccn1)=[S]=[Fe].O=S(=O)(O)O
8. Oc1c(CN2CCOCC2)ccc(CN2CCOCC2)c1O

["-3.2% (inactive)", "6.26% (inactive)", "8.28% (inactive)", "7.48% (inactive)", "-5.65% (inactive)", "-17.5% [at 38 µM] (inactive)", "-13.8% (inactive)", "-3.77% (inactive)"]

---

System: CP305
Test: qHTS profiling for inhibitors of Plasmodium falciparum proliferation (AID 504749); further: nearly all actives have a fitted effect of over 60% in size
Settings: P. falciparum in erythrocytes, SYBR Green DNA, 72 h; series mostly up to 28.7 µM
Records with an inconclusive call do not appear. The source made the active and inactive calls. Calls follow the shape of the dose curve; as a rule, active = well fitted inhibition curve with a large enough effect; inconclusive = small, poorly fitted or top-dose-only effect; inactive = flat fitted curve, though single readings scatter.
Thanks in advance; please answer with one of these: active, inactive

The examples below pair each entry with its known result.
smiles notation | measured target | group
Cc1cn([C@H]2C[C@H](N=[N+]=[N-])[C@H](CO)O2)c(=O)[nH]c1=O | CP305 | inactive
Cc1c(C(=O)O)c(O)cc2c1C(=O)c1c(O)c([C@H]3O[C@H](CO)[C@@H](O)[C@H](O)[C@H]3O)c(O)c(O)c1C2=O | CP305 | inactive
C(=C/c1ccccc1)/CN1CCN(C(c2ccccc2)c2ccccc2)CC1 | CP305 | inactive
O=C(O)[C@@H](S)[C@H](S)C(=O)O | CP305 | active

What call does the record list for N[C@H](COP(=O)(O)O)C(=O)O ? inactive

What call does the record list for NS(=O)(=O)c1cc2c(cc1Cl)N[C@H](Cc1ccccc1)NS2(=O)=O ? inactive

What call does the record list for COc1cccc2c1C(=O)c1c(O)c3c(c(O)c1C2=O)C[C@](O)(C(=O)CO)C[C@@H]3O[C@H]1C[C@H](N)[C@@H](O)[C@H](C)O1 ? inactive

What call does the record list for C[C@]12CC[C@H]3c4ccc(O)cc4CC[C@@H]3[C@H]1CC[C@@H]2OC(=O)CCC1CCCC1 ? inactive

What call does the record list for COc1cc2nc(N(C)CCCNC(=O)[C@@H]3CCCO3)nc(N)c2cc1OC ? inactive
